Biological target: Orai1 (STIM1/Orai1 channel, CRAC channel) (Homo sapiens)
Construct: with STIM1
Sequence (Q96D31 whole entry): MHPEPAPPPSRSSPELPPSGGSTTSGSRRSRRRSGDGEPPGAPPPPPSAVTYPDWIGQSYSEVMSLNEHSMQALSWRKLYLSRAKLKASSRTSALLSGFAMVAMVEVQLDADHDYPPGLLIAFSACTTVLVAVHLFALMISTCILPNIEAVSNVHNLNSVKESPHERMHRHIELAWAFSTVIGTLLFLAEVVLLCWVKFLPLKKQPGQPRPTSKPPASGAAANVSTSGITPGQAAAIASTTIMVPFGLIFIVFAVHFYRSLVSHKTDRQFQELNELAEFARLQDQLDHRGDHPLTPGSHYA
Sequence (Q13586 23-685 partner): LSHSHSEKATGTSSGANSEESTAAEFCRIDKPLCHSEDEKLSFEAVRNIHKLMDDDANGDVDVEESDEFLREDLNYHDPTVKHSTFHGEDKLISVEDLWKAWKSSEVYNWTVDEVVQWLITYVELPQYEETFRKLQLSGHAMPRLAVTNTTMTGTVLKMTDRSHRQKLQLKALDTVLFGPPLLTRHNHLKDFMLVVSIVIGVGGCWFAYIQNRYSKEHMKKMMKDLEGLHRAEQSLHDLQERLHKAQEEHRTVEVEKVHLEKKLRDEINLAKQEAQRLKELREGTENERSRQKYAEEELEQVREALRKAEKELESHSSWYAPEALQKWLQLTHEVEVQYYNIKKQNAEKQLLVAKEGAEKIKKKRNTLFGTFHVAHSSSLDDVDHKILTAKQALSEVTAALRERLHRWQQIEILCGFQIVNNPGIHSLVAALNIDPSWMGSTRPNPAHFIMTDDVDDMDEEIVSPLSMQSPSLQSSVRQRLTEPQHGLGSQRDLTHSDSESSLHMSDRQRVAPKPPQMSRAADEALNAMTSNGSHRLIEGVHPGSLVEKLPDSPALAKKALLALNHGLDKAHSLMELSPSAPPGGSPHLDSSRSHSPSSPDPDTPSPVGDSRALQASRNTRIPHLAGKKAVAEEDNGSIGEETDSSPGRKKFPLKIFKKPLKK
Experiment: whole-cell patch clamp of STIM1/Orai1 currents in transfected HEK293T cells
resultType: IC50 (µM)
Field format: number, assumed µM, no unit text.

Let me know recorded IC50 for COc1cc(OC)c(CCC(=O)c2ccc(O)cc2)c(OC)c1 , thanks.
17.1

All values here come from paper PMC8268022.
